Reference source for all entries: patent US9006454B2

# measurement target: UniProt Q02127
# Sequence (Q02127 whole entry): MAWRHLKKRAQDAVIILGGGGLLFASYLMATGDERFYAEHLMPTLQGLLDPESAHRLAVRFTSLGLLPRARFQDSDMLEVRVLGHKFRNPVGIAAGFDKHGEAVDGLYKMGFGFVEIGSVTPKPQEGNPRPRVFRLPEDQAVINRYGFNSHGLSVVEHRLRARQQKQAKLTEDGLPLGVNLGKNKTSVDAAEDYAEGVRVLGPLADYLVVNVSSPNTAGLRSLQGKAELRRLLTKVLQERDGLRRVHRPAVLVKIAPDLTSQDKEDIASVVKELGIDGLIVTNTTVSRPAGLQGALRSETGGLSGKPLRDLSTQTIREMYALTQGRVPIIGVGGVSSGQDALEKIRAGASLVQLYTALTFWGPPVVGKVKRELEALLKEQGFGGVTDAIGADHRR
# experiment description: DHODH activity assay (coupled enzyme assay, DCIP reduction, absorbance at 610 nm)
# Format: biochemical
# test conditions: compound at 10 uM; read-out: inh @ 10 uM hDHODH (%)
experimental endpoint: inhibition at 10 µM (%)

INSERT INTO results (compound, unit_info, readout_number) VALUES
  ('O=C(O)c1cccn2cc(-c3ccc(-c4ccccc4)cc3)nc12 [I138]', '%', 76.1);

(1) O=C(O)c1cc(F)cc2nc(-c3ccc(-c4ccccc4)cc3F)[nH]c12 [Example 29]
(2) Cc1cc(C(=O)O)c2nc(-c3ccc(-c4ccc(Oc5ccc(C=O)cc5)cc4)cc3)[nH]c2c1 [I135]
Between 1 and 2 , whose recorded inhibition at 10 µM is greater? Answer format: the label of the selected item.
1

(1) Cc1cc(C(=O)O)c2nc(-c3c(F)c(F)c(-c4ccsc4)c(F)c3F)[nH]c2c1 [I139]
(2) O=C(O)c1cccc2[nH]c(-c3c(F)c(F)c(-c4cccc(F)c4F)c(F)c3F)nc12 [I128]
# return whichever of 1 and 2 has the smaller inhibition at 10 µM Please reply using the label of the selected record.
2

(A) O=C(O)c1cccc2[nH]c(-c3c(F)c(F)c(-c4cccnc4)c(F)c3F)nc12 [I136]
(B) Cc1cc(C(=O)O)c2[nH]c(-c3ccc(-c4ccc(OCCN5CCCCC5)cc4)cc3)nc2c1 [I154]
Compare reported inhibition at 10 µM values for A and B . Which is lower? Answer format: the label of the selected item.
B
